ASSAY_TARGET: Solute carrier family 22 member 6 (Homo sapiens)
Sequence (Q4U2R8 whole entry): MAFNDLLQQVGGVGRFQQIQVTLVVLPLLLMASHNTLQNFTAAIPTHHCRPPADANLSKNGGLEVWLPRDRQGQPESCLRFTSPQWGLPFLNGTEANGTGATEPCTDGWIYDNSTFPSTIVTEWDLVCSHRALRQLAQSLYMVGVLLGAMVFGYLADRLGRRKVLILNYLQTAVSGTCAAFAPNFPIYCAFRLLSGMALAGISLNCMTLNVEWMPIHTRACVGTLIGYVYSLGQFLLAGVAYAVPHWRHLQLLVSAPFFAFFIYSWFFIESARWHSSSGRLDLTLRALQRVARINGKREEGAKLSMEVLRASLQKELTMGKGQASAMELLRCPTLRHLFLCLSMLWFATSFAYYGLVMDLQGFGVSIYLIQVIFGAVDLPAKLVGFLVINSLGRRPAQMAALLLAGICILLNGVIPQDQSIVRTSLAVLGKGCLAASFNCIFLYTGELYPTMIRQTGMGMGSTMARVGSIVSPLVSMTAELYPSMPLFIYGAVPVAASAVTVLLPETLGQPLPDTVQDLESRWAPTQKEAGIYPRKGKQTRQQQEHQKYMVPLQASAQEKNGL
MEASUREMENT_NOTES: TP_TRANSPORTER: inhibition of ochratoxin A uptake (ochratoxin A / 1uM) in Xenopus laevis oocytes
ENDPOINT: pIC50
Quick note: pIC50 means taking -log10 of the concentration in moles per liter.

Exercise: Quick one: give measured pIC50 for O=c1oc2c(O)c(O)cc3c(=O)oc4c(O)c(O)cc1c4c23
Solution: 6.57

Data credit: ChEMBL document CHEMBL2074371
